Data provenance: patent US4521419A

- PROTOCOL DETAILS: acute toxicity (LD50) in the mouse
- TEST PARAMETERS: in vivo, po, per os, single administration of increasing doses, measured on the seventh day after treatment, read-out: approximate acute toxicity (LD50)
OBSERVED PROPERTY: LD50 at 168 h

STRUCTURE	LD50 at 168 h
Cc1ccccc1C=C1CCc2c1nc1ccc(C(=O)O)cn1c2=O	> 800 mg/kg
O=C(O)c1ccc2nc3c(c(=O)n2c1)CCC3=Cc1ccccc1	> 800 mg/kg

Next, consider the following molecule.
So, `O=C(O)c1ccc2nc3c(c(=O)n2c1)CCCC3=Cc1ccccc1` ? Its LD50 at 168 h was > 800 mg/kg
